# Test system: Enterococcus faecium ATCC 700221 (VRE)
# Assay Explanation: Broth microdilution MIC, E. faecium ATCC 700221 (VRE)
# Format: cell-based
# Measurement Conditions: Enterococcus faecium; broth microdilution, 37° C., 20 hours; read-out: MIC E. faecium ATCC 700221 (VRE)
Assay Endpoint: MIC (µg/mL)

* O=C(O)CCCn1ncc2nc(NCc3ccc(Cl)c(Cl)c3)[nH]c(=O)c21 [Compound 145] | 16
* Cc1cc(CNc2nc3cnn(C)c3c(=O)[nH]2)ccc1Cl [Compound 35] | 4
* O=c1[nH]c(NCc2ccc(Cl)c(Cl)c2)nc2cnn(CCN3CCNCC3)c12 [Compound 74] | 16
* Cl.O=C(c1cccnc1)N1CCC(n2ncc3nc(NCc4ccc(Cl)c(Cl)c4)[nH]c(=O)c32)CC1 [Compound 256] | 2
* Cl.Cl.O=c1[nH]c(NCc2ccc(Cl)c(Cl)c2)nc2cnn(C3CCN(Cc4ccncc4)CC3)c12 [Compound 246] | 2
* Cn1ncc2nc(NCc3cccc(Cl)c3)[nH]c(=O)c21 [Compound 26] | 32
* Cl.O=c1[nH]c(NCc2ccc(Cl)c(Cl)c2)nc2cnn(CCN3CCC(O)CC3)c12 [Compound 65] | 8
* O=C([C@@H](O)[C@H](O)CO)N1CCC(n2ncc3nc(NCc4ccc(Cl)c(Cl)c4)[nH]c(=O)c32)CC1 [Compound 276] | 32
* Cl.O=C([C@@H]1C[C@H](O)CN1)N1CCC(n2ncc3nc(NCc4ccc(Cl)c(Cl)c4)[nH]c(=O)c32)CC1 [Compound 278] | 64
* Cn1ccnc1Cn1ncc2nc(NCc3ccc(Cl)c(Cl)c3)[nH]c(=O)c21 [Compound 97] | 8

(P) O=c1[nH]c(NCc2ccc(Cl)c(Cl)c2)nc2cnn(CCN3CCS(=O)(=O)CC3)c12 [Compound 59]
(Q) COc1cccnc1C(=O)N1CCC(n2ncc3nc(NCc4ccc(Cl)c(Cl)c4)[nH]c(=O)c32)CC1.Cl [Compound 268]
Q) So which one has the bigger MIC here, P or Q ? Use the label to indicate which entry you chose.
A) Q
